Target: α2β2γ1 GABAA receptor subtype (Homo sapiens (Human), UniProt P47869+Q8N1C3)
Experiment: Two-electrode voltage clamp electrophysiology in Xenopus oocytes expressing GABAA receptors (modulation of GABA EC20 current)
Format: cell-based
Conditions: Xenopus oocytes expressing α2β2γ1; compound at approx. 30-fold its Ki α2β2γ1; GABA EC20 current
I'd be grateful if you could share measured Fold increase h-GABA-A α2β2γ1 oocyte @ 30-fold Ki for these entries.
Answers are plain numbers.

Previously resolved entries follow.
- molecule: "Cc1nc2n(n1)-c1ccc(Cl)c(Cl)c1C(c1c(F)cccc1F)=NC2 [Example 32]"
  assayedSystem: "α2β2γ1 GABAA receptor subtype (Homo sapiens (Human), UniProt P47869+Q8N1C3)"
  result: 1.26
- molecule: "C[C@@H]1N=C(c2c(F)cccc2F)c2c(ccc(C(F)(F)F)c2Cl)-n2nc(C(=O)NCC#N)nc21 [Example 110]"
  assayedSystem: "α2β2γ1 GABAA receptor subtype (Homo sapiens (Human), UniProt P47869+Q8N1C3)"
  result: 2.19
- molecule: "C[C@@H]1N=C(c2c(F)cccc2F)c2c(ccc(C(F)(F)F)c2Cl)-n2nc(NC(=O)N3CC(F)C3)nc21 [Example 128]"
  assayedSystem: "α2β2γ1 GABAA receptor subtype (Homo sapiens (Human), UniProt P47869+Q8N1C3)"
  result: 1.98
- molecule: "C[C@@H]1N=C(c2ncccc2F)c2c(ccc(C(F)(F)F)c2Cl)-n2cc(C(=O)N[C@H]3C[C@@H](O)C3)nc21 [Example 166]"
  assayedSystem: "α2β2γ1 GABAA receptor subtype (Homo sapiens (Human), UniProt P47869+Q8N1C3)"
  result: 2.84
- molecule: "C[C@@H]1N=C(c2ncccc2F)c2c(ccc(C(F)(F)F)c2Cl)-n2nc(C(=O)N3CC4(CCCO4)C3)nc21 [Example 113]"
  assayedSystem: "α2β2γ1 GABAA receptor subtype (Homo sapiens (Human), UniProt P47869+Q8N1C3)"
  result: 1.76
- molecule: "CNC(=O)Nc1nc2n(n1)-c1ccc(C(F)(F)F)c(Cl)c1C(c1c(F)cccc1F)=N[C@H]2C [Example 129]"
  assayedSystem: "α2β2γ1 GABAA receptor subtype (Homo sapiens (Human), UniProt P47869+Q8N1C3)"
  result: 1.36
- molecule: "C[C@@H]1N=C(c2c(F)cccc2F)c2c(ccc(Cl)c2Cl)-n2nc(C(=O)N3CCC3)nc21 [Example 14]"
  assayedSystem: "α2β2γ1 GABAA receptor subtype (Homo sapiens (Human), UniProt P47869+Q8N1C3)"
  result: 1.57
- molecule: "C[C@@H]1N=C(c2ncccc2F)c2c(ccc(C(F)(F)F)c2Cl)-n2nc(C(=O)N3CC4(COC4)C3)nc21 [Example 112]"
  assayedSystem: "α2β2γ1 GABAA receptor subtype (Homo sapiens (Human), UniProt P47869+Q8N1C3)"
  result: 2.36

Would you be so kind as to report Fold increase h-GABA-A α2β2γ1 oocyte @ 30-fold Ki for each listed record?
1. C[C@@H]1N=C(c2ncccc2F)c2c(ccc(C(F)(F)F)c2Cl)-n2cc(CO)nc21 [Example 153]
2. C[C@@H]1N=C(c2c(F)cccc2F)c2c(ccc(C(F)(F)F)c2Cl)-n2nc(C(=O)NC[C@@H](C)O)nc21 [Example 105]
3. C[C@@H]1N=C(c2c(F)cccc2F)c2c(ccc(Cl)c2Cl)-n2nc(C(F)F)nc21 [Example 18]

3.47
1.98
1.70
